- Protocol Details: MRP1 drug-resistance reversers in H69AR cells – cell-based, doxorubicin co-treatment, pilot screen (AID 601)
- Measurement Context: H69AR cells, CellTiter-Glo, 72 h; compound alone cytotoxicity; at 10 µM
Quantity Name: viability

COC(=O)c1ccccc1NC(=O)c1noc2c1CC(C(C)(C)C)CC2 (stereo unspecified) ... 107%
Nc1nc(Cl)nc2c1ncn2[C@@H]1O[C@H](CO)[C@@H](O)[C@H]1O ... 50.3%
COc1cccc(-c2noc(CCC(=O)NC3CCCCC3)n2)c1 ... 97.6%
CCS(=O)(=O)c1nc2ccccc2n1CC(=O)N1CCOCC1 ... 91%
CC(=O)Nc1ccc(NC(=O)c2ccccc2F)cc1 ... 108%
O=C(NC1CCCCC1)C(c1ccc(Cl)cc1)N(C(=O)c1cnccn1)c1ccc2c(c1)OCO2 (stereo unspecified) ... 80.2%
COC(=O)c1ccc2c(c1)C(=O)N(C1CCCCC1)C2=O ... 104%
CCSc1ccccc1C(=O)NCc1ccc(S(N)(=O)=O)cc1 ... 93.7%
CCn1c(=N)n(CC(O)COc2cccc(C)c2)c2ccccc21 (stereo unspecified) ... 69.9%
COc1cccc2c1C(=O)c1c(O)c3c(c(O)c1C2=O)C[C@@](O)(C(=O)CO)C[C@@H]3O[C@H]1C[C@H](N)[C@H](O)[C@H](C)O1 ... 18%
O=C(NCCN1CCCCCC1)c1ccc(N2CCCC2=O)cc1 ... 95.9%
COC(=O)c1ccc(NC2(C#N)C(=O)Nc3ccccc32)cc1 (stereo unspecified) ... 42.1%
O=C1CC(C(=O)Nc2ccccc2)C2(CCCC2)O1 (stereo unspecified) ... 93.9%
Cc1cc(NCCCn2ccnc2)n2c(nc3ccccc32)c1C#N ... 100%
O=C(NCc1nc2ccccc2[nH]1)c1ccco1 ... 90.7%
COc1ccc(-n2c(N)c(C(=O)NCc3ccco3)c3nc4ccccc4nc32)c(OC)c1 ... 11%
Cc1ccc(NCc2nnc(SCC(=O)NCc3ccco3)n2CC2CCCO2)cc1Cl (stereo unspecified) ... 88.5%
CON(C)c1nc(Oc2ccc(=O)[nH]n2)nc(N(C)C)n1 ... 97.9%
CCOc1ccc(OCC)c(NS(=O)(=O)c2ccc3c(c2)n(C)c(=O)c(=O)n3C)c1 ... 95.1%
Cc1ccc(C)c(C(=O)NC2CC(C)(C)NC(C)(C)C2)c1 ... 86.7%
COc1ccccc1-c1ccc(Nc2cccc(C(C)=O)c2)nn1 ... 71.6%
COC(=O)C1(C(=O)OC)Sc2ccccc2C1=O ... 101%
CCCn1c(SCC(=O)NCc2ccco2)nc2c1c(=O)n(C)c(=O)n2C ... 94.4%
O=C(O)C1C2CCC(O2)C1C(=O)Nc1cccc(F)c1 (stereo unspecified) ... 90.8%
Cc1ccc(C)c(SCC(=O)Nc2nnc(-c3ccccc3)o2)c1 ... 74.9%
CN1CCN(S(=O)(=O)c2ccc(NC(=O)c3ccc(F)cc3)cc2)CC1 ... 96.8%
O=C(CSc1nnnn1-c1ccccc1)Nc1nsc(-c2ccc(Cl)cc2)n1 ... 54%
COc1ccc(Cn2c(C)nc3c(c2=O)c2nc4ccccc4nc2n3Cc2ccco2)cc1 ... 34.6%
O=C(Nc1ccc(Cl)c(Cl)c1)Nc1cc(C(=O)N2CCOCC2)ccc1N1CCCCC1 ... 95.9%
CN(c1cccc(NS(=O)(=O)c2cccs2)c1)S(C)(=O)=O ... 86.8%
COc1ccc(CCNC(=O)C2CCCN(c3nn4c(=O)cc(C)nc4s3)C2)cc1OC (stereo unspecified) ... 86.4%
CCOC(=O)c1cc2oc(C)cc2n1CC(=O)OC1CCCCC1 ... 87.3%
CCOC(=O)c1nnn(-c2nonc2NC(C)=O)c1C ... 98.2%
COc1cccc(NC(=O)C2CCN(c3ncccn3)CC2)c1 ... 94%
O=C(c1ccco1)N1CCN(C(=O)c2ccc(Cn3cc(Br)cn3)o2)CC1 ... 79.7%
COc1ccc(CCNS(=O)(=O)c2ccc(C(=O)NCc3ccco3)cc2)cc1OC ... 80.9%
CCOC(=O)Cc1nnc(NC(=O)c2ncn[nH]2)s1 ... 98.8%
CCOc1ccccc1OCCn1nnc2ccccc21 ... 98.7%
Nc1nc(Nc2ccc(Cl)cc2Cl)nc(C(F)(F)F)n1 ... 89.8%
O=C(CN1C(=O)COc2ccccc21)NCCCN1CCN(Cc2ccccc2)CC1 ... 87.3%
O=C(Nc1ccc2c(c1)OCO2)c1cccc(Cl)c1 ... 104%
OCCNc1ncnc2c1c(-c1ccccc1)c(-c1ccccc1)n2Cc1ccco1 ... 72.4%
CSc1n[nH]c(NCc2ccccc2)n1 ... 96.8%
CCOc1ncccc1C(=O)Nc1ccc2c(C)cc(=O)oc2c1 ... 93.5%
COC(=O)Cn1c2ccccc2c2nc(C)sc21 ... 92.7%
CCCCCCCCNC(C)C(O)c1ccc(SC(C)C)cc1 (stereo unspecified) ... 1.16%

---

- Protocol Details: H69AR cell proliferation blockers – human, duplicate replicates, primary screen (AID 580);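 also: 100% = mean luminescence of untreated wells and 0% = no signal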
- Measurement Context: H69AR lung tumor cells viability, ATP luminescence, 72 h; at 10 µM; stronger effect = lower value
Quantity Name: viability (%)

CCCCNC(=O)OC(C)CNC(=O)Oc1cccc(C)c1 (configuration not stated) ... 93.8
COc1cccc2cc(C(=O)n3ccc(C)n3)c(=O)oc12 ... 93.4
CC(=O)OC(C(=O)NCc1ccco1)c1cccnc1 (configuration not stated) ... 87
Cc1cc(C)cc(Nc2ncc3c(n2)CC(c2ccco2)CC3=O)c1 (configuration not stated) ... 88.3
CCN(CC(=O)O)S(=O)(=O)c1cc(Cl)ccc1Cl ... 90.9
COc1ccc(C(F)(F)F)cc1NC(=O)c1nc2nc(C)cc(C(F)F)n2n1 ... 79.9
O=c1cc(CSc2nnnn2-c2ccccc2)nc2scc(-c3ccccc3)n12 ... 101
C=Cn1c(N2CCOCC2)nc2c1c(=O)[nH]c(=O)n2C ... 97.1
CN(c1cccc(NS(=O)(=O)c2cccs2)c1)S(C)(=O)=O ... 86.8
COC(=O)C1(C(=O)OC)Sc2ccccc2C1=O ... 101
COc1cccc(-c2noc(CCC(=O)NC3CCCCC3)n2)c1 ... 97.6
CN1CCN(c2nc(-c3ccncc3)nc3ccccc23)CC1 ... 78.3

---

- Protocol Details: HUVEC growth inhibition – cell-based, human, primary screen (AID 575);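 also: 100% = median of untreated cell wells with 0.1% DMSO on each plate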
- Measurement Context: HUVEC proliferation, CellTiter-Glo luminescence, 72 h; at 10 µM; stronger effect = lower value
Rule for this label: yes means viability is less than 90%; no means viability is at least 90%.

O=C(CCCN1C(=O)c2ccccc2C1=O)NCc1cccnc1 ... no
O=C(Cn1cnc2sc(-c3ccccc3)cc2c1=O)N1CCOCC1 ... no
CCCc1n[nH]c2c1/C(=N/O)CC(c1ccccc1)C2 (stereo unspecified) ... yes
CC(C)NC(=O)NC(=O)COc1cccc2c1OC(C)(C)C2 ... no
C=C(C)CSc1nnc2[nH]c(=O)cc(N)n12 ... yes

---

- Protocol Details: growth suppression of yeast trafficking mutant, preliminary HTS, modulators of trafficking downstream of Golgi apparatus project, 1536-format plate, OD 615 nm (AID 637)
- Measurement Context: yeast transport mutant growth, absorbance 615 nm, 18 h; stronger effect = higher value
Quantity Name: inhibition (%)

C=Cn1c(N2CCOCC2)nc2c1c(=O)[nH]c(=O)n2C ... 1.59
Cc1cc(C)n(-c2nc(C)nc3c2cnn3-c2ccccc2)n1 ... 6.19
O=S(=O)(Cc1ccc(Cl)cc1)Nc1ccc2c(c1)OCO2 ... 4.29
CCC1(CC)C(=O)N(C)C(=O)NC1=NCc1ccccc1 ... 3.02
CC(=O)c1ccc(NC(=O)CSc2nnc(-c3ccoc3C)n2Cc2ccccc2)cc1 ... -8.57
CN(C)c1ccc(/C=C/C(O)=C2/C(=O)N(C)C3(C)CC2c2ccccc2O3)cc1 (stereo unspecified) ... -12.7

---

- Protocol Details: HUVEC growth inhibition – cell-based, human, primary screen (AID 575);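 also: 100% = median of untreated cell wells with 0.1% DMSO on each plate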
- Measurement Context: HUVEC proliferation, CellTiter-Glo luminescence, 72 h; at 10 µM
Activity calls are given as the source filed them.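 The calls were made as follows: active = viability at or below 30% in both replicate assays; inconclusive = viability at or below 30% in just one of the two assays; inactive = the rest.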 Peptide text beside a SMILES is read from it. * marks the point of attachment. Boc = CC(C)(C)OC(=O)*
Outcomes: 1 = active, 0 = inactive

COc1ccc(C(=O)Cn2nnc(-c3cccs3)n2)cc1 ... 0
CSc1ccc2c(c1)N(CCC1CCCCN1C)c1ccccc1S2 (configuration not stated) ... 1
O=C(O)c1ccc(-n2nnnc2Oc2ccccc2C(=O)N2CCOCC2)cc1 ... 0
COc1ccc(CCN2CCC(Nc3nc4ccccc4n3Cc3ccc(F)cc3)CC2)cc1 ... 1
O=C1C=C(NCc2ccco2)C2(CCCCC2)O1 ... 0
O=c1oc2ccccc2c(O)c1CN1CCCCC1 ... 0
CN(c1cccc(NS(=O)(=O)c2cccs2)c1)S(C)(=O)=O ... 0
O=C(Nc1ccc2c(c1)C(=O)N(C1CCCCC1)C2=O)C1CCCO1 (configuration not stated) ... 0
CCc1nnc(NC(=O)CSc2nnc(-c3ccoc3C)n2CC(C)C)s1 ... 0
C=CCNc1oc(-c2cccc3ccccc23)nc1C#N ... 0
O=S(=O)(c1ccccc1)N1CCSC1c1ccco1 (configuration not stated) ... 0
Cc1ccc(NCc2nnc(SCC(=O)NCc3ccco3)n2CC2CCCO2)cc1Cl (configuration not stated) ... 0
CCC1(CC)C(=O)C(C)(C)C(=O)OC1c1cccs1 (configuration not stated) ... 0
COc1ccc(OC)c(NC(=O)Cc2coc3ccc(C)cc23)c1 ... 0
CS(=O)(=O)N(CC(=O)N1CCCCCC1)c1ccccc1 ... 0
Cc1cc(C)n(-c2nc(C)nc3c2cnn3-c2ccccc2)n1 ... 0
O=C(CSc1nnc(-c2ccccc2)o1)N1CCc2ccccc2C1 ... 0
COc1ccc(C)cc1-n1nnnc1SCC(=O)NC(=O)NCc1ccco1 ... 0
COc1ccc(C(=O)COC(=O)CCn2nnc(-c3cccs3)n2)cc1 ... 0
Cc1ccc(CC23CN4CCN(CC(C4)C2O)C3)c(C)c1 (configuration not stated) ... 0
CCN1C(=O)/C(=C/N2CCc3ccccc32)SC1=S ... 0
S=c1nc(C2CC2)[nH]c2ccccc12 ... 0
CN(c1ccccc1)S(=O)(=O)c1cc(C(=O)N2CCN(c3ccccn3)CC2)ccc1Cl ... 0
CC(=O)Nc1cccc(-c2nnc(-c3ccccc3)o2)c1 ... 0
CN(C(=O)c1c(Cl)nc2sccn12)C1CCCCC1 ... 0
CCc1nccn1S(=O)(=O)c1ccc2ccc(C)cc2c1 ... 0
S=c1[nH]ncn1-c1ccccn1 ... 0
Cc1ccc2nc(CSc3nnc(-c4ccco4)n3-c3ccccc3)cc(=O)n2c1 ... 0
N#CC(C(=O)NCCc1ccccc1)c1nc2ccccc2nc1N1CCOCC1 (configuration not stated) ... 0
O=C(O)C1C2CCC(O2)C1C(=O)Nc1cccc(F)c1 (configuration not stated) ... 0
CN(C)S(=O)(=O)Nc1ccccc1C(N)=O ... 0
O=C(O)C1C2CCC(C2)C1C(=O)NCCCn1ccnc1 (configuration not stated) ... 0
COCC(C)NC(=O)CCS(=O)(=O)c1nc(-c2ccc(OC)cc2)cc(C(F)(F)F)n1 (configuration not stated) ... 1
C=CCC(Nc1ccco1)c1ccccc1 (configuration not stated) ... 0
O=c1[nH]c2ccccc2n1CCCN1CCN(C(c2ccccc2)c2ccccc2)CC1 ... 0
O=C(Nc1cc(C(F)(F)F)ccc1Cl)C1CCN(c2nnc(-n3cccc3)s2)CC1 ... 0
CCNc1nc(NC(C)C)nc(N(C#N)CCOc2ccc(Cl)cc2Cl)n1 ... 0
O=c1c2ccc(-c3nnc4n3-c3ccccc3SC4)cc2nc2n1CCCCC2 ... 0
CC(C)(C)OC(=O)N1CCCC1C(=O)N1CCCC1C(=O)N1CCCC1C(=O)O (stereo not drawn) (Boc-Pro-Pro-Pro-OH; configuration not given here) ... 0
Cc1ccccc1NC(=O)c1ccccc1 ... 0
Cc1cc(NCCCn2ccnc2)n2c(nc3ccccc32)c1C#N ... 0
O=C(NCc1nc2ccccc2[nH]1)c1ccco1 ... 0
Cc1ccc(C(=O)Nc2ccc3c(c2)OCO3)o1 ... 0
O=C(NC1CC2CCC1C2)c1ccc(CN2CCOCC2)cc1 (configuration not stated) ... 0
Cc1cccc(NC(=O)c2oc3c(c2C)C(=O)CC(C)(C)C3)n1 ... 0
Cc1ccccc1CN1CCN(C(=O)c2cccc(F)c2)CC1 ... 0
C=Cn1c(N2CCOCC2)nc2c1c(=O)[nH]c(=O)n2C ... 0
